Can you tell me IC50 for the items I'm about to list?
- Test system: RS4;11 (BCL-2 dependent acute lymphoblastic leukemia cell line)
- PROTOCOL_DESCRIPTION: RS4;11 Cell Proliferation Assay
- Format: cell-based
- APPLIED_CONDITIONS: Homo sapiens, RS4-11, RS4;11 cells, read-out: Cellular proliferation assay (IC50, nM) RS4
Quick note: unit goes after the number.

Completed entries (count: 3):
- COMPOUND: "CC(C)c1ccccc1C1CN(Cc2ccc(C3CC3)cc2)CCN1C1CC2(CCN(c3ccc(C(=O)NS(=O)(=O)c4ccc(NC[C@H]5CC[C@](C)(O)CC5)c([N+](=O)[O-])c4)c(Oc4cnc5[nH]cc(F)c5c4)c3)CC2)C1 (stereo partly shown)"
  TARGET: "RS4;11 (BCL-2 dependent acute lymphoblastic leukemia cell line)"
  RESULT: "0.564 nM"
- COMPOUND: "CC(C)c1ccccc1[C@@H]1CN(Cc2ccnc3c2OC(C)(C)CO3)CCN1C1CC2(C1)CN(c1ccc(C(=O)NS(=O)(=O)c3ccc(NC[C@H]4CC[C@](C)(O)CC4)c([N+](=O)[O-])c3)c(Oc3cnc4[nH]cc(F)c4c3)c1)C2"
  TARGET: "RS4;11 (BCL-2 dependent acute lymphoblastic leukemia cell line)"
  RESULT: "0.18 nM"
- COMPOUND: "CC(C)c1ccccc1C1CN(Cc2cccc3c2N(C)CCO3)CCN1C1CC2(CCN(c3ccc(C(=O)NS(=O)(=O)c4ccc(NC[C@H]5CC[C@](C)(O)CC5)c([N+](=O)[O-])c4)c(Oc4cnc5[nH]ccc5c4)c3)CC2)C1 (stereo partly shown)"
  TARGET: "RS4;11 (BCL-2 dependent acute lymphoblastic leukemia cell line)"
  RESULT: "0.27 nM"

Query the reported IC50 for RS4;11 (BCL-2 dependent acute lymphoblastic leukemia cell line); item: COc1cccc(CN2CCN(C3CC4(CCN(c5ccc(C(=O)NS(=O)(=O)c6ccc(NC[C@H]7CC[C@](C)(O)CC7)c([N+](=O)[O-])c6)c(Oc6cnc7[nH]ccc7c6)c5)CC4)C3)C(c3ccccc3C(C)C)C2)c1Cl (stereo partly shown)
1.25 nM
